Origin of the recorded values: the supplement of paper PMC12420376

- System: KURAMOCHI
- procedure_text: drug sensitivity score (DSS2) on cancer cell count; higher = more sensitive; extreme values may be limits of the assay
- setup_conditions: co-cultured fibroblast: WI38; 72 h
measured_metric: drug sensitivity score (DSS)

>>> value_measured("CCCCCOC(=O)Nc1nc(=O)n([C@@H]2O[C@H](C)[C@@H](O)[C@H]2O)cc1F [Capecitabine]")
0
>>> value_measured("CCC(C)n1ncn(-c2ccc(N3CCN(c4ccc(OCC5COC(Cn6cncn6)(c6ccc(Cl)cc6Cl)O5)cc4)CC3)cc2)c1=O (centres undefined) [Itraconazole]")
0
>>> value_measured("C[C@H]1C[C@@H]2[C@H]([C@@H](O)C[C@@]3(C)[C@H]2CC[C@]3(O)C(=O)CO)[C@@]2(C)C=CC(=O)C=C12 [Methylprednisolone]")
0
>>> value_measured("Cn1nccc1Nc1nccc(-c2ccn([C@H](CO)c3ccc(Cl)c(F)c3)c(=O)c2)n1 [Ravoxertinib]")
3.2

====

Reported drug sensitivity score values follow for various molecules
- Tested on: KURAMOCHI
- procedure_text: drug sensitivity score (DSS2) on cancer cell count; higher = more sensitive; extreme values may be limits of the assay
- setup_conditions: co-cultured fibroblast: BJHTERT; 72 h
measured_metric: drug sensitivity score (DSS)

>>> value_measured("O=c1[nH]c(=O)n([C@H]2C[C@H](O)[C@@H](CO)O2)cc1F [Floxuridine]")
19.9
>>> value_measured("O=C(Nc1cccc(Nc2ncc(Br)c(NCCc3cnc[nH]3)n2)c1)N1CCCC1 [BX-912]")
10.4
>>> value_measured("CCC/C=C/C=C/C(=O)O[C@H]1/C(=C/C(=O)OC)C[C@H]2C[C@H]([C@@H](C)O)OC(=O)C[C@H](O)C[C@@H]3C[C@H](OC(C)=O)C(C)(C)[C@](O)(C[C@@H]4C/C(=C/C(=O)OC)C[C@H](/C=C/C(C)(C)[C@]1(O)O2)O4)O3 [Bryostatin 1]")
0
>>> value_measured("CCNC(=O)C[C@@H]1N=C(c2ccc(Cl)cc2)c2cc(OC)ccc2-n2c(C)nnc21 [Molibresib]")
6.5

====

- Tested on: KURAMOCHI
- procedure_text: drug sensitivity score (DSS2) on cancer cell count; higher = more sensitive; extreme values may be limits of the assay
- setup_conditions: co-cultured fibroblast: WI38; 72 h
measured_metric: drug sensitivity score (DSS)

>>> value_measured("CNC(=O)c1ccccc1Nc1nc(Nc2ccc3c(c2OC)CCC[C@H](N2CCN(CCO)CC2)C3)ncc1Cl")
2.2
>>> value_measured("Nc1cccc2c1C(=O)N(C1CCC(=O)NC1=O)C2=O (stereo not drawn) [Pomalidomide]")
0
>>> value_measured("O=C(O)CNC(=O)c1c(O)c2ccccc2n(Cc2ccccc2)c1=O")
0
>>> value_measured("COCCOc1cnc2ccn([C@H](C)c3nnc4c(F)cc(-c5cnn(C)c5)cn34)c(=O)c2c1")
0
>>> value_measured("CN1CC[C@H](c2c(O)cc(O)c3c(=O)cc(-c4ccccc4Cl)oc23)[C@H](O)C1")
20.2
>>> value_measured("CN(CC(=O)N(Cc1ccc(C2CCCCC2)cc1)c1ccc(C(=O)O)cc1)S(=O)(=O)c1c(F)c(F)c(F)c(F)c1F")
7.8
>>> value_measured("CCc1nc(C(N)=O)c(Nc2ccc(N3CCC(N4CCN(C)CC4)CC3)c(OC)c2)nc1NC1CCOCC1")
0
>>> value_measured("Cn1cnc2c(F)c(Nc3ccc(Br)cc3F)c(C(=O)NOCCO)cc21")
0
